Overview of reported melting point across a group of compounds:

Take a look at these entries with their results.
{"columns": ["compound", "reported_measurement"],
 "data": [
  ["Cc1ccc(-c2cc(-c3ccccc3)nc3sc4c(=O)[nH]c(=O)[nH]c4c23)cc1 [Compound 2b]", "316 to 317 °C"],
  ["Cc1cc(C)c2c3c(sc2n1)C(=O)NC1(CCCC1)N3 [Compound 6a]", "245 to 246 °C"],
  ["Cc1cc(C)c2c(n1)sc1c(=O)[nH]c(CCl)nc12 [Compound 4a]", "330 to 331 °C"],
  ["Cc1ccc(-c2cc(-c3ccccc3)nc3sc4c(c23)NC2(CCCC2)N=C4SCC(N)=O)cc1 [Compound 8b]", "148 to 149 °C"]
]}

Would you mind telling me what melting point value was observed for Cc1cc(C)c2c3c(sc2n1)C(SCC1CO1)=NC1(CCCCC1)N3 (centres unmarked) [Compound 9a] ?
155 °C

Also need Cc1ccc(-c2cc(-c3ccccc3)nc3sc4c(=O)[nH]c(CN5CCN(C)CC5)nc4c23)cc1 [Compound 5b] , thanks.
260 to 261 °C

Also need Cc1ccc(-c2cc(-c3ccccc3)nc3sc4c(=O)[nH]c(CCl)nc4c23)cc1 [Compound 4b] , thanks.
310 °C

Also need Cc1ccc(-c2cc(-c3ccccc3)nc3sc4c(c23)NC2(CCCC2)NC4=O)cc1 [Compound 6b] , thanks.
210 °C

###

Below are MIC values recorded for Candida albicans 10231.
measure: MIC (µg/mL)

Take a look at these entries with their results.
{"columns": ["molecule", "measure", "reported_measurement"],
 "data": [
  ["Cc1cc(C)c2c3c(sc2n1)C(=O)NC1(CCCCC1)N3", "MIC", 16],
  ["Cc1ccc(-c2cc(-c3ccccc3)nc3sc4c(c23)NC2(CCCCC2)NC4=O)cc1", "MIC", 64],
  ["Cc1cc(C)c2c3c(sc2n1)C(SCC1CO1)=NC1(CCCCC1)N3 (centres unmarked)", "MIC", 16]
]}

[I] Cc1ccc(-c2cc(-c3ccccc3)nc3sc4c(=O)[nH]c(=O)[nH]c4c23)cc1
[II] Cc1cc(C)c2c(n1)sc1c(=O)[nH]c(=O)[nH]c12
Lab note: check whether I or II has the lower measured MIC. Pick one; state its label.
I

###

Below are pIC50 values recorded for EGFR kinase (Homo sapiens, UniProt P00533).
In textbook form, pIC50 equals minus log to base ten of the concentration in mol/L.

Take a look at these entries with their results.
{"columns": ["compound", "pIC50"],
 "data": [
  ["Cc1ccc(-c2cc(-c3ccccc3)nc3sc4c(c23)NC2(CCCC2)NC4=O)cc1", 7.27],
  ["Cc1cc(C)c2c(n1)sc1c(Cl)nc(Cl)nc12", 7.76],
  ["Cc1ccc(-c2cc(-c3ccccc3)nc3sc4c(c23)NC2(CCCC2)N=C4SCC2CO2)cc1 (stereo not shown)", 8.14]
]}

With those in mind, consider the next compound.
Would you mind telling me what pIC50 value was observed for `Cc1ccc(-c2cc(-c3ccccc3)nc3sc4c(=O)[nH]c(CN5CCOCC5)nc4c23)cc1` ?
8.02

###

# Tested on: Bacillus cereus 33018
# protocol_notes: In vitro antibacterial activity, MIC by broth dilution
# Assay type: cell-based
# experimental_conditions: Gram +ve bacteria, read-out: MIC B. cereus
measure: MIC (µg/mL)

{"columns": ["chemical_smiles", "measure", "reported_measurement"],
 "data": [
  ["Cc1ccc(-c2cc(-c3ccccc3)nc3sc4c(c23)NC2(CCCC2)NC4=S)cc1", "MIC", 64]
]}

[a] Cc1ccc(-c2cc(-c3ccccc3)nc3sc4c(c23)NC2(CCCC2)N=C4SCC(N)=O)cc1
[b] Cc1cc(C)c2c3c(sc2n1)C(=S)NC1(CCCCC1)N3
Lab note: check whether a or b has the lower measured MIC. Pick one; state its label.
b
